assay.target: ENPP1 (Homo sapiens (Human))
Sequence (P22413 whole entry, species assumed): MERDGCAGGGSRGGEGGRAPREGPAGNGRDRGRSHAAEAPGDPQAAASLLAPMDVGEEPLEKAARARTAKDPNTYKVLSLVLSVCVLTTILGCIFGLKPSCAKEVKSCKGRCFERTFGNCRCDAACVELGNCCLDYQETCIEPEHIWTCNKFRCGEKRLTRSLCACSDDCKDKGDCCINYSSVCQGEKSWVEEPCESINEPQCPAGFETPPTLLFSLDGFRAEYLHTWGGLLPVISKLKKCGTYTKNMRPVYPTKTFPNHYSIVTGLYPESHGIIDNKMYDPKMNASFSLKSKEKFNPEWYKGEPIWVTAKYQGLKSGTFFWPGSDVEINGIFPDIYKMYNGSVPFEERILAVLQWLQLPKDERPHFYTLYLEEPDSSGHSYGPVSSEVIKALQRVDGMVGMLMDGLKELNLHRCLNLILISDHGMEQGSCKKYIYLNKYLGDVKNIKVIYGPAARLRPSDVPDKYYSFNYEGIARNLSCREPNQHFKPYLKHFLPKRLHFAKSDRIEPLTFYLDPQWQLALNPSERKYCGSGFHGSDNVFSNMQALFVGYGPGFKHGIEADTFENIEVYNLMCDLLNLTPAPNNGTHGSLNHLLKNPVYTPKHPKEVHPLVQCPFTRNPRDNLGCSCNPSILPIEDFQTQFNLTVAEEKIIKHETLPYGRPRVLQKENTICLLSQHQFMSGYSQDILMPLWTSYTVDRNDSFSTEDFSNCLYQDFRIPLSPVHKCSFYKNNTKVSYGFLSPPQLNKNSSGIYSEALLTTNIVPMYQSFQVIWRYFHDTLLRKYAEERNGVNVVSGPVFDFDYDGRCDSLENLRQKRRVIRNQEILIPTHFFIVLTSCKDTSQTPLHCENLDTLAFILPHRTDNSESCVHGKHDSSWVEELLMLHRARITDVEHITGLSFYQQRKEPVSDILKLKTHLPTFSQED
assay: ATP-Glo enzymatic assay (ATP substrate, AMP-Glo readout)
Type: biochemical
condition: 25° C. for 60 min, 50 mM Tris pH 8.8
pIC50: −log10 of the molar value.
test.readout: pIC50

[[record]]
structure = "COc1ncc2nc(C)n(Cc3c(F)cc(S(N)(=O)=O)cc3F)c2c1-c1ccccc1"
experimental_result = "> 9.00"

[[record]]
structure = "COc1ncc2nc(C)n(Cc3ccc(S(N)(=O)=O)cc3F)c2c1-c1ccccc1"
experimental_result = "> 9.00"

[[record]]
structure = "CCc1ncc2nc(C)n(Cc3c(F)cc(S(N)(=O)=O)cc3F)c2c1-c1ccccc1"
experimental_result = "> 9.00"

[[record]]
structure = "Cc1cc(Cn2c(C3CC3)nc3cnc(C)c(-c4ccccc4)c32)ccc1S(N)(=O)=O"
experimental_result = "> 9.00"

[[record]]
structure = "Cc1ncc2c(C)cn(Cc3c(F)cc(S(N)(=O)=O)cc3F)c2c1-c1ccn(C(F)(F)F)n1"
experimental_result = "6.00 to 7.00"

[[record]]
structure = "Cc1ncc2nc(C3CC3)n(Cc3ccc(S(N)(=O)=O)cn3)c2c1-c1ccccc1"
experimental_result = "> 9.00"


Tell me the measured pIC50 of "COc1ncc2c(c1-c1ccccc1)n(Cc1ccc(S(N)(=O)=O)cn1)c(=O)n2C" , please.
> 9.00

And what about the compound "COc1ncc2ccn(Cc3c(F)cc(S(N)(=O)=O)cc3F)c2c1-c1ccn(C)n1" ?
8.00 to 9.00

Subsequent entry: "COc1ncc2nc(C(F)F)n(Cc3ncc(S(N)(=O)=O)cc3F)c2c1-c1ccccc1"
> 9.00

Again, but for "Cc1ncc2c(c1-c1ccccc1)n(Cc1ncc(S(N)(=O)=O)cc1F)c(=O)n2C"
> 9.00

Another compound to look at: "COc1ncc2ncn(Cc3ccc(S(N)(=O)=O)cc3)c2c1-c1ccccc1"
> 9.00

Try this compound too: "COc1ncc2ccn(Cc3ccc(S(N)(=O)=O)cc3)c2c1-c1ccn(C)n1"
7.00 to 8.00

Now try "Cc1ncc2c(c1-c1ccccc1)n(Cc1ccc(S(N)(=O)=O)cc1)c(=O)n2C" .
> 9.00

Now give it for "Cc1ncc2c(c1-c1ccccc1)n(Cc1ccc(S(N)(=O)=O)cn1)c(=O)n2C" too.
> 9.00

Further, for "COc1ncc2c(C)cn(Cc3ccc(S(N)(=O)=O)cc3)c2c1-c1ccccc1" ?
> 9.00

Follow-up item: "Cc1ncc2nc(C)n(Cc3ccc(S(N)(=O)=O)nc3)c2c1-c1ccccc1"
> 9.00

Ok, now "COc1ncc2c(C)cn(Cc3ccc(NS(N)(=O)=O)cc3)c2c1-c1ccn(C)n1"
6.00 to 7.00

Reference source: patent US20250101019A1
